Assay: Cytotoxicity against green monkey Vero cells
Type: toxicity, cell-based
Conditions: green monkey (Chlorocebus sabaeus)
attribute measured: IC50 (µg/mL)
Give the number; µg/mL is assumed, so skip it.

Incoming: Any idea what its IC50 is? The compound is O=C(c1ccccn1)[C@@H]1[C@@H](c2ccc(Cl)cc2Cl)[C@H](c2ccccc2)NC12C(=O)Nc1ccccc12 (some centres not stated)
Outgoing: 17

====

Test: Anticancer activity against human MCF-10A cells assessed as reduction of cell growth
Format: toxicity, cell-based
attribute measured: IC50 (µM)
Give your result in µM as a bare value.

Incoming: Consider the compound CC1(C)CC(=O)C2C(C1)N(c1ccccn1)C(=O)C21c2ccccc2NC2C(=O)CC(C)(C)CC21 (stereo not drawn) and give its measured IC50.
Outgoing: 34.6

Incoming: Sample CC1(C)CC(=O)C2C(C1)N(c1ccccc1F)C(=O)C21c2ccccc2NC2C(=O)CC(C)(C)CC21 (stereo not drawn) — what was its IC50?
Outgoing: 36.3

Incoming: Entry COc1cccc(N2C(=O)C3(c4ccccc4NC4C(=O)CC(C)(C)CC43)C3C(=O)CC(C)(C)CC32)c1 (stereo not drawn) has what IC50?
Outgoing: 48.1
